- SUBJECT OF TEST: Elastase
- ASSAY INFO: Protease panel: Elastase
- Type: biochemical
- CONDITION SET: supplement panel table, test and control compound
Counter-ions that a name gives are not always drawn.
REPORTED METRIC: IC50 (µM)
Give the quantity in µM, number only.

Observed IC50 on Elastase for CCOC(=O)c1ccc(OC(=O)CCCCCN=C(N)N)cc1 [Gabexate mesylate (GM), Gabexate mesylate] , please. 1.81

----------
- SUBJECT OF TEST: CYP450 3A4 (Homo sapiens)
- Construct: Piramal Pharma Solutions (contract laboratory)
- Sequence (P08684 whole entry): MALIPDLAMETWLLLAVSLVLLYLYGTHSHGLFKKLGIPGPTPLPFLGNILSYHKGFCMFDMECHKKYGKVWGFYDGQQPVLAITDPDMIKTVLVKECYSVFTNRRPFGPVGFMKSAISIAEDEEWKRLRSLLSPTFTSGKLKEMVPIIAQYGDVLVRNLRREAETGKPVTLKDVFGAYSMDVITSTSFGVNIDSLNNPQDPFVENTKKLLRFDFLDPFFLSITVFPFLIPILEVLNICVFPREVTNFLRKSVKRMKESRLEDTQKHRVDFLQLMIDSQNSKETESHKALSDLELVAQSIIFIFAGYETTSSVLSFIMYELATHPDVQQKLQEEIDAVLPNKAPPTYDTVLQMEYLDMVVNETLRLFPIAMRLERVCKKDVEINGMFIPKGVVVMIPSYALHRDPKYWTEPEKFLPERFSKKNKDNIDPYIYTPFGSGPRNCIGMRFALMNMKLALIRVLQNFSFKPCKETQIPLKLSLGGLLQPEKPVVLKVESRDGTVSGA
- ASSAY INFO: Recombinant cytochrome P450 enzyme assay, 3A4
- CONDITION SET: highest concentration tested 10 μM
REPORTED METRIC: IC50

Provide the documented IC50 with CYP450 3A4 (Homo sapiens) as the system for O=C(N[C@@H](Cc1ccccn1)C(=O)N[C@@H](CCc1ccccc1)B(O)O)c1cnccn1 [Compound 58] > 10 µM

Recorded values, source paper PMC5404560.
